The molecules listed here are annotated with their Mean relative activity.
# Tested on: K562 CRISPRi cells
# ASSAY_EXPLANATION: Constant region variant library pooled growth screen, K562
# Assay type: cell-based, human
# RUN_CONDITIONS: sgRNA constant region variants; activity relative to the original, un-modified constant region cr995
REPORTED_METRIC: Mean relative activity

>>> numeric_readout("cr522 (nucleic acid, listed as DNA, chemistry not fully specified) guide: GTTTAAGAGCTAAGCTGGAAACAGCATTGCAAGTTTAAATAAGGCTAGTCCGTTGTCAACTTGAAAAAGTGGCACCGAGCCGGTGCT")
0.7084
>>> numeric_readout("cr038 (nucleic acid, listed as DNA, chemistry not fully specified) guide: GTTTGCGAGCTAAGCTGGAAACAGCATAGCAAGTTTAAATAAGGCTAGTCCGTTATCAACTTGAAAAAGTGGCACCGAGTCGGTGCT")
0.07321
>>> numeric_readout("cr623 (nucleic acid, listed as DNA, chemistry not fully specified) guide: GTTTAAGAGCTAAGCTGGAAACAGCATAGCAAGTTTAAATAAGGCTAGTCCGTTATCACTGTGAAAACAGGGCACCGAGTCGGTGCT")
1.041
>>> numeric_readout("cr381 (nucleic acid, listed as DNA, chemistry not fully specified) guide: GTTTAAGAGCTAAGCTGGAAACAGCATAGCAAGTTTAAATTAGGCTCGTCCGTTATCAACTTGACAAAGTGGCACCGAGTCGGTGCT")
0.003196
>>> numeric_readout("cr401 (nucleic acid, listed as DNA, chemistry not fully specified) guide: GTTTAAGAGCTAAGCTGGAAACAGCATAGCAAGTTTAAATAAGGCTAGTCCGTTATCAACTTGAAAAAGTGGCTCCGAGTCTGCGCT")
0.09781
>>> numeric_readout("cr454 (nucleic acid, listed as DNA, chemistry not fully specified) guide: GTTTAAGAGCTAAGCTGGAAACAGCATAGCAAGTTTAAATAATGCTAGTCAGTTATCACCTTGAAAAAGGGGTACCGAGTCGGTACT")
0.02618
